- TARGET: full length human SIRPα v1 with a small beta-gal fragment (ED) fused to its C-terminal, expressed in K562 … (human, UniProt P78324 31-504)
- Sequence (P78324 31-504): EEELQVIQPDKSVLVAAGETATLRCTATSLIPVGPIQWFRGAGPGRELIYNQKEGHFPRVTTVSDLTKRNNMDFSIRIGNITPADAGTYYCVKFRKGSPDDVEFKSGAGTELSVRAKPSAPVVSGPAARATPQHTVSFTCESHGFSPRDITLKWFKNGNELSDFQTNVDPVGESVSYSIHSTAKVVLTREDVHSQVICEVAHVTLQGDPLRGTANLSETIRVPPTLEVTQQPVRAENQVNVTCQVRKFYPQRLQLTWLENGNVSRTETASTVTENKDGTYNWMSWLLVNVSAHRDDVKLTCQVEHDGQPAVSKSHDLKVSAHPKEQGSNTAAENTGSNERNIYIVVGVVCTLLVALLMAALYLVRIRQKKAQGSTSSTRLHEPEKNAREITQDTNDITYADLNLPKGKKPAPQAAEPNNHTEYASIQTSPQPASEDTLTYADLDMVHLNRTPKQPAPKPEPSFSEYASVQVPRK
- ASSAY OVERVIEW: cell-based or functional assay
MEASUREMENT TYPE: SHP-1 recruitment blocking, TOP blocking (%)
Give just the number in %; leave the unit off.

Reported SHP-1 recruitment blocking, TOP blocking (%) for hu025.021 (antibody, V domains shown, Humanized 025; also called hu025.21) VH: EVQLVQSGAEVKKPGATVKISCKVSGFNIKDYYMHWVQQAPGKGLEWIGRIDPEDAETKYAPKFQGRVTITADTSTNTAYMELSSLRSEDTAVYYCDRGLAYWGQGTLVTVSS VL: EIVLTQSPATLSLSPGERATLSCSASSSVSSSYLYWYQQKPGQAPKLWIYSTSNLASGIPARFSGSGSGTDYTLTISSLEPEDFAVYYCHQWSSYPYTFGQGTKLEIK : what is it?
86.3

Recorded SHP-1 recruitment blocking, TOP blocking (%) for hu025.060 (antibody, V domains shown, Humanized 025; also called hu025.60) VH: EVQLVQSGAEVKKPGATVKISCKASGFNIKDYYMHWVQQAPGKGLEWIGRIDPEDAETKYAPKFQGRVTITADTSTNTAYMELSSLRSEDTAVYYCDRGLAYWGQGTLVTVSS VL: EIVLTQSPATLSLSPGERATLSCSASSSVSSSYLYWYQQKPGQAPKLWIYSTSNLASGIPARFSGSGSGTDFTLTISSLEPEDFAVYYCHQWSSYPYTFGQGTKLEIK , please?
87.5

For the binder hu025.023 (antibody, V domains shown, Humanized 025; also called hu025.23) VH: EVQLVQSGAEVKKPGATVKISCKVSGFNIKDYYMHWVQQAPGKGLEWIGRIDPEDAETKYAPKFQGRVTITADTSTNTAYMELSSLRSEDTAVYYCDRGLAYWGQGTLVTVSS VL: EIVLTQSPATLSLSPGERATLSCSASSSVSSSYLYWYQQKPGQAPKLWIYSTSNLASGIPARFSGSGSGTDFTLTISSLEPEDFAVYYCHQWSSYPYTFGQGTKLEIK , what SHP-1 recruitment blocking, TOP blocking (%) is on record?
85.5

If you can, please state the reported SHP-1 recruitment blocking, TOP blocking (%) value of hu025.059 (antibody, V domains shown, Humanized 025; also called hu025.59) VH: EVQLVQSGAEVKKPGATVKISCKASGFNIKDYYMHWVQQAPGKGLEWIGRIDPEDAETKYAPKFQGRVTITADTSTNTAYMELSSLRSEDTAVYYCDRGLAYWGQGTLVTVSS VL: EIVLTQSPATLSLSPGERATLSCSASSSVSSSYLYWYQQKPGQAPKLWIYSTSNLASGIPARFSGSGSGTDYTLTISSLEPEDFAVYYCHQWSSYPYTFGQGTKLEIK .
78.8
